Target: NRAS Q61R (Homo sapiens (Human), UniProt P01111+P62937, Q61R)
Sequence (P01111 whole entry Q61R): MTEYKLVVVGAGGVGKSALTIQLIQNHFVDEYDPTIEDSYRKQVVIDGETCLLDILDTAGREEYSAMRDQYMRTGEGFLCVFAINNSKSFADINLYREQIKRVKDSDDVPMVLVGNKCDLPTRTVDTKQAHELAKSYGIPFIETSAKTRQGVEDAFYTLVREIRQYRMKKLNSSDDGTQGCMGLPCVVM
Sequence (P62937 whole entry): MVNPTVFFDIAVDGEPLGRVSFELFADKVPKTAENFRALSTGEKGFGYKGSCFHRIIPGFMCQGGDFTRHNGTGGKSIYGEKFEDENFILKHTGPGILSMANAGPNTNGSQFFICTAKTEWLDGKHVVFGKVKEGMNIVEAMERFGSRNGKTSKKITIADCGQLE
Test: Ras-Raf (BRAF RBD) disruption / FRET / MOA assay, NRAS Q61R
Type: biochemical
Conditions: NRAS Q61R; Ras-Raf disruption/FRET/MOA assay; read-out: IC50* NRAS Q61R FRET data
pIC50: −log10 of the molar value.
Quantity measured: pIC50

Solved entries (count: 7):
# Molecule, Endpoint result
data = [
    ("CO[C@@H](C)c1ncccc1-c1c2c3cc(ccc3n1CC(F)(F)F)-c1cccc(c1)C[C@H](NC(=O)[C@H](C(C)C)N(C)C(=O)N1CCC3(CC1)CN(C(=O)/C=C/CN(C)C)C3)C(=O)N1CCC[C@H](N1)C(=O)OCC(C)(C)C2 (atropisomer, axis not shown) [Example A555]", "6.00 to 7.00"),
    ("C=CC(=O)N1CC[C@H](C(=O)N(C)[C@H](C(=O)N[C@H]2Cc3cc(O)cc(c3)-c3ccc4c(c3)c(c(-c3cn(C)cn3)n4CC)CC(C)(C)COC(=O)[C@@H]3CCCN(N3)C2=O)C(C)C)C1 [Example A113]", "< 5.00"),
    ("CO[C@@H](COC1CN(C(=O)C#CC(C)(C)N(C)C)C1)C(=O)N[C@H]1Cc2coc(n2)-c2ccc3c(c2)c(c(-c2cccnc2[C@H](C)OC)n3CC(F)(F)F)CC(C)(C)COC(=O)[C@@H]2CCCN(N2)C1=O (atropisomer, axis not shown) [Example A579]", "< 5.00"),
    ("C=CC(=O)N(C)[C@@H]1C[C@@H](C)N(C(=O)N(C)[C@H](C(=O)N[C@H]2Cc3nc(cs3)-c3ccc4c(c3)c(c(-c3cccnc3[C@H](C)OC)n4CC)CC(C)(C)COC(=O)[C@@H]3CCCN(N3)C2=O)C(C)C)C1 (atropisomer, axis not shown) [Example A634]", "6.00 to 7.00"),
    ("C=CC(=O)N1CC[C@H](C(=O)N(C)[C@H](C(=O)N[C@H]2CN3CCC=C(C3)c3ccc4c(c3)c(c(-c3cccnc3[C@H](C)OC)n4CC)CC(C)(C)COC(=O)[C@@H]3CCCN(N3)C2=O)C(C)C)C1 (atropisomer, axis not shown) [Example A716]", "< 5.00"),
    ("CCn1c(-c2cccnc2[C@H](C)OC)c2c3cc(ccc31)-c1csc(n1)C[C@H](NC(=O)[C@H](C(C)C)N(C)C(=O)N(C)C1CN(C(=O)/C=C/[C@H]3CCCN3C)C1)C(=O)N1CCC[C@H](N1)C(=O)OCC(C)(C)C2 (atropisomer, axis not shown) [Example A729]", "5.00 to 6.00"),
    ("C=CC(=O)N1C[C@@H]2CN(C(=O)N(C)[C@H](C(=O)N[C@H]3Cc4nc(cs4)-c4ccc5c(c4)c(c(-c4cccnc4[C@H](C)OC)n5CC)CC(C)(C)COC(=O)[C@@H]4CCCN(N4)C3=O)C(C)C)[C@@H]2C1 (atropisomer, axis not shown) [Example A561]", "5.00 to 6.00"),
]

Proceeding to the next molecule to report its pIC50.
Lab note: CCn1c(-c2cccnc2[C@H](C)OC)c2c3cc(ccc31)-c1cccc(c1)C[C@H](NC(=O)C(COC1CN(C(=O)C#CC(C)(C)N(C)C)C1)C(C)C)C(=O)N1CCC[C@H](N1)C(=O)OCC(C)(C)C2 (some centres unmarked) [Example A316] gave pIC50 of < 5.00
